- assayMethodText: NCI Yeast Anticancer Drug Screen. Data for the mlh1 strain (AID 171);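 also: 0% = growth of vehicle-treated control cultures of the same strain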
- conditionInfo: S. cerevisiae mlh1 strain growth inhibition; at 33.0 µM; active compounds read high
- Method: Growth inhibition of yeast strains with defined genetic alterations is measured as a screen for potential anti-cancer activity. Selected strains with alterations in DNA damage repair or cell cycle control were exposed to compounds and growth inhibition was measured relative to vehicle treated controls. The strain used in this assay is mlh1
Compounds without any hit were thinned out: in the full panel of roughly 79,000, 15% have a hit.
Rule: Met for growth inhibition not less than 10%, Not met for anything less.

Look over these answered cases.
COc1cc(C(C)(C)C)cc(OC)c1C(O)(c1c(OC)cc(C(C)(C)C)cc1OC)c1c(OC)cc(C(C)(C)C)cc1OC
Met
CSc1ccc2c(c1)C(N1CCN(C)CC1)Cc1ccccc1S2 (stereo unspecified)
Met

hey, is growth inhibition for this one >= 10%? O=C(CSS(=O)(=O)O)c1ccccc1
Met

Query Nc1cccc2cc(Cl)cnc12 next
Not met

Query CN(C)CCNC(=O)c1cccc2nc3c(ccc4ccccc43)nc12 next
Met

Query COc1cc(C(C)C(C(=O)O)C(=O)C(=O)O)cc(OC)c1OC (stereo unspecified) next
Not met

Query O=C(O)CN(CCNC(=O)OCC1c2ccccc2-c2ccccc21)CCNC(=O)OCC1c2ccccc2-c2ccccc21 next
Met

Query O=C1C=CC(=O)N1c1ccc(Br)cc1Cl next
Met

Query O=C(O)/C=C\C(=O)NNc1ccc(Br)cc1 next
Met

Query O=C(N/N=C/c1ccc2c(c1)CCC2)c1ccccc1[N+](=O)[O-] next
Met

Query CCCC(=O)OC(OC(=O)CCC)c1ccc([N+](=O)[O-])o1 next
Not met

----------
- assayMethodText: NCI Yeast Anticancer Drug Screen. Data for the wt1 strain (AID 149);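 also: 0% = growth of vehicle-treated wt1 cultures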
- conditionInfo: S. cerevisiae wt1 strain (SPY 50644) growth inhibition; at 11.0 µM; active compounds read high
The panel holds about 79,000 compounds, 15% with a hit somewhere; the sample as a whole holds those more often.
Exercise: state measured growth inhibition for each of the compounds provided.
One number for each entry, in %.

Look at each compound and report its growth inhibition.
1. CN(C)c1ccc(/C=C/c2ccnc3ccc4ccccc4c23)cc1
2. Cc1ccc(Cl)c2c(=O)c3ccccc3[nH]c12
3. O=c1c(Br)cc2c(-c3ccccc3)c3cc(Br)c(O)c(Br)c3oc-2c1Br
4. O=C1c2ccccc2C2CCC1c1ccccc12 (stereo unspecified)
5. COc1ccc2c(Cc3c4ccccc4cc4ccccc34)cncc2c1O

-6
-2
9
-13
12

Bench note: what growth inhibition did Cc1cnccc1N=Nc1ccc(N(C)C)cc1 show?
-8

----------
- assayMethodText: NCI Yeast Anticancer Drug Screen. Data for the bub3 strain (AID 167)
- conditionInfo: S. cerevisiae bub3 mutant strain, at 50.0 µM (retest, dose inferred, filed as 5.0), active compounds read high
This is part of a sample that, as a whole, favours compounds with a hit. Of some 79,000 tested, about 15% had one in any assay.
Exercise: state measured growth inhibition for each of the compounds provided.
Numbers only, in %.

O=C1C=CC(=O)N1c1ccc(Br)cc1Cl
98
CN(NC(=O)/C(=C/C=C/c1ccccc1)NC(=O)c1ccccc1)C1=C(Cl)C(=O)[N+](c2ccccc2)=CC1
72
COC(=O)C1(N2CCOCC2)CCC([C@@H](c2ccccc2)C(C)[N+](=O)[O-])C1 (stereo partly specified)
-29
C=Cc1c(C)c(O)cc2c1-c1ccc(O)c(C)c1CC2
97
O=C1C(Br)=CC(Br)(Br)C=C1Br
99

// moving on: another record for growth inhibition
Bench note: what growth inhibition did CCC(C)/C(C)=N/NC(N)=O (stereo unspecified) show?
43

----------
- assayMethodText: NCI Yeast Anticancer Drug Screen. Data for the rad50 strain (AID 155);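 also: 0% = growth of vehicle-only cultures of the same strain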
- conditionInfo: S. cerevisiae rad50 strain growth inhibition; at 50.0 µM (retest, dose inferred, filed as 5.0)
The panel holds about 79,000 compounds, 15% with a hit somewhere; the sample as a whole holds those more often. Calls of active or inactive are those of the source. No stated cut-off is given here; in the data, active means growth inhibition above about 70%; inactive means the rest.
Could you please pick one outcome from this set? T for active, F for inactive

Look over these answered cases.
CN(C)c1ccc(/C=C/c2ccnc3ccc4ccccc4c23)cc1
F
O=C(c1c(F)c(F)c(F)c(F)c1F)c1c(F)c(F)c(F)c(F)c1F
T

Then this compound:
Which outcome did this test record for the compound Cc1ccc(SSc2ccc(C)cc2[N+](=O)[O-])c([N+](=O)[O-])c1 ?
T

----------
Exercise: state measured growth inhibition for each of the compounds provided.
- assayMethodText: NCI Yeast Anticancer Drug Screen. Data for the CLN2oe strain (AID 163);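 also: 0% = growth of vehicle-only control cultures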
- conditionInfo: S. cerevisiae CLN2oe strain, at 1.2 µM, active compounds read high
The panel holds about 79,000 compounds, 15% with a hit somewhere; the sample as a whole holds those more often.
Answers are plain numbers, in %.

Example entries and their recorded answers appear below.
O=C(O)[C@H]1[C@@H](C2CCCCC2)O[C@@H](C2CCCCC2)O[C@H]1C(F)(F)F
-1
CCCCCCC(CCl)c1sc(-c2csc(CCNC(=O)OC(C)(C)C)n2)nc1C(=O)OC (configuration not stated)
-3
Cc1cccc(N2CCN(C(=O)/C(=C/c3ccccc3)NC(=O)c3ccccc3)CC2)c1
-6

Look at each compound and report its growth inhibition.
1. CN(Cc1cccc2ccccc12)Cc1cccc2ccccc12
2. CCC1SC(=S)N(c2ccc(Cl)cc2)C1=O (configuration not stated)
3. CCOC(=O)c1[nH]c2cccc3c2c1CC(Br)C3=O (configuration not stated)

1: -3; 2: -9; 3: -48

Look at each compound and report its growth inhibition.
1. O=[N+]([O-])C(=C(NCc1ccccc1)NCc1ccccc1)C(Cl)=C(Cl)Cl
2. CNC(=O)OCc1c(COC(=O)NC)c(C)n(-c2ccc(Cl)c(Cl)c2)c1C
3. c1cncc(C(Nc2cccc3cccnc23)Nc2cccc3cccnc23)c1
4. N#C/C(=C1C=C/C(=N\O)C(Cl)=C\1)c1ccccc1
5. O=C(O)CN(CCNC(=O)OCC1c2ccccc2-c2ccccc21)CCNC(=O)OCC1c2ccccc2-c2ccccc21
6. COC1=C(N=[N+]=[N-])C(=O)c2ncccc2C1=O
7. Oc1ccc(Br)cc1C=Nc1cccc(C(F)(F)F)c1
8. O=C(N/N=C/c1ccc2c(c1)CCC2)c1ccccc1[N+](=O)[O-]

-5
-30
6
2
-1
-5
-4
-3

Look at each compound and report its growth inhibition.
1. Cc1cc(NC(=S)SCc2ccc(Cl)cc2)ccc1Cl
2. CC(C)OC(CCC#N)c1ccc(Cl)cc1 (configuration not stated)
3. COc1ccc2c(C)cc(N/N=C/c3sccc3C)nc2c1
4. CCC(C)/C(C)=N/NC(N)=O (configuration not stated)
5. Cc1cnccc1N=Nc1ccc(N(C)C)cc1
6. CC[C@]1(O)C[C@H]2CN(CCc3c([nH]c4ccccc34)[C@@](C(=O)OC)(c3cc4c(cc3OC)N(C)[C@H]3[C@@](O)(C(=O)OC)[C@H](OC(C)=O)[C@]5(CC)C=CCN6CC[C@]43[C@@H]65)C2)C1

-3
11
-6
-7
3
-2

Look at each compound and report its growth inhibition.
1. Cc1ccc(S(=O)(=O)N/N=C/c2c(O)ccc3ccccc23)cc1
2. Nc1nc(Nc2ccccc2)nc(Nc2ccccc2)n1

[-17, -7]

----------
- assayMethodText: NCI Yeast Anticancer Drug Screen. Data for the sgs1 strain (AID 173);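 also: 0% = growth of vehicle-only control cultures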
- conditionInfo: S. cerevisiae sgs1 mutant, at 33.0 µM
The panel holds about 79,000 compounds, 15% with a hit somewhere; the sample as a whole holds those more often. Active and inactive are the calls of the source. Rule as the data show it: active = growth inhibition above about 70%; inactive = the rest.
Could you please pick one outcome from this set? active, inactive

N=C(N)c1ccc(N=Nc2c(O)ccc3c2[nH]c2ccccc23)cc1
active
CN(C)CCn1c2ccccc2c2nc3cc4ccccc4cc3nc21
active

Which outcome did this test record for the molecule CC[N+]1(C)CCC(O)(/C=C/c2ccc(Cl)c(Cl)c2)C(C(=O)/C=C/c2ccc(Cl)c(Cl)c2)C1 (stereo not given) ?
active

Query CC1C=CN(N(C)C)C2=C1C(=O)c1cnccc1C2=O (stereo not given) next
active

Query Cc1cc(NCCCN(C)C)c2ccc3c(ccc4c(NCCCN(C)C)cc(C)nc43)c2n1 next
inactive

Query O=C1c2ccccc2-c2ccc(NC(=O)C3CCCCC3C(=O)O)cc21 (stereo not given) next
inactive

----------
- assayMethodText: NCI Yeast Anticancer Drug Screen. Data for the rad14 strain (AID 159);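 also: 0% = growth of vehicle-treated control cultures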
- conditionInfo: S. cerevisiae rad14 strain growth inhibition; at 33.0 µM; active compounds read high
About 79,000 compounds went through this panel and 15% of them were active in at least one assay; those are over-represented in the sample as a whole. Activity calls are given as the source filed them. Rule as the data show it: active = growth inhibition above about 70%; inactive = the rest.
Exercise: state measured growth inhibition for each of the molecules provided.

Example entries and their recorded answers appear below.
OC1C#CCSCC#C/C=C\1 (configuration not stated)
51% (inactive)
CC1C=CN(N(C)C)C2=C1C(=O)c1cnccc1C2=O (configuration not stated)
89% (active)
CCCCCCCCCC/C=C\CC(=O)O
33% (inactive)

Look at each molecule and report its growth inhibition.
1. O=C(O)NCC1CCCCC1 (tested in a mixture with another compound)
2. Cc1cccc(N2CCN(C(=O)/C(=C/c3ccccc3)NC(=O)c3ccccc3)CC2)c1
3. CCCCCCCCCCCCCCCCCN
4. O=C(/C(=C/c1ccccc1)CBr)c1ccccc1
5. Cc1ccc2oc(-c3cccc(N)c3)nc2c1
6. CSc1ccc2c(c1)C(N1CCN(C)CC1)Cc1ccccc1S2 (configuration not stated)

-1% (inactive)
28% (inactive)
95% (active)
93% (active)
18% (inactive)
98% (active)
